- test: Nanoparticle tracking analysis (NTA) of TiO2 NPs after incubation with MLP ingredients
- Type: physicochemical
- stated conditions: 0.1 mg/mL TiO2 NPs + 0.1 mg/mL MLP ingredient, 60 min, diluted 1:100 in water
Reported particle diameter of TiO2 NPs, mode by item:

molecule	particle diameter of TiO2 NPs, mode [nm]
COC(=O)c1ccc(O)cc1	106
Nc1ccc(N)cc1	122
CCOC(=O)c1ccc(O)cc1	105
O=C1C=C(O)C(=O)c2ccccc21 [HNQ, 2-hydroxy-1,4-naphtoquinone]	117
CCCCOC(=O)c1ccc(O)cc1	111
CCCOC(=O)c1ccc(O)cc1	103
CC(C=O)Cc1ccc(C(C)(C)C)cc1 (stereo not shown)	117
